measurement.target: Mu-type opioid receptor (Homo sapiens)
Sequence (P35372 whole entry): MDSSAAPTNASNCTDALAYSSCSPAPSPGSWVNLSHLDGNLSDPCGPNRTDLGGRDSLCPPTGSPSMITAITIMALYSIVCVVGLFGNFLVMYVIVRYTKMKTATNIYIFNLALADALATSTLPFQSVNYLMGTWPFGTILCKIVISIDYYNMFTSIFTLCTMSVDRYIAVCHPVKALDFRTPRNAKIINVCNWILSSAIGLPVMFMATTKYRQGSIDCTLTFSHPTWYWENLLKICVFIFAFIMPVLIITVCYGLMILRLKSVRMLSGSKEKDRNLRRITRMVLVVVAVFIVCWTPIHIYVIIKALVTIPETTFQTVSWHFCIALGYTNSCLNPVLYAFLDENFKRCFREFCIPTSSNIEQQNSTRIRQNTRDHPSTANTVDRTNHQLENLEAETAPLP
experiment.summary: biochemical
Description: Agonist activity at human mu opioid receptor expressed in CHO cell membranes incubated for 1 hr by [35S]GTPgammaS binding assay
metric.name: EC50 (nM)
State just the number; it will be interpreted in nM.

input: Which EC50 is reported for this compound? `Oc1ccc2c3c1O[C@H]1c4ncc(-c5ccc(F)cc5)cc4C[C@@]4(OCCCc5ccccc5)[C@@H](C2)N(CC2CC2)CC[C@]314`
output: 117

input: Which EC50 is reported for this compound? `Oc1ccc2c3c1O[C@H]1c4ncc(-c5ccc(F)cc5F)cc4C[C@@]4(OCCCc5ccccc5)[C@@H](C2)N(CC2CC2)CC[C@]314`
output: 130

input: Which EC50 is reported for this compound? `Oc1ccc2c3c1O[C@H]1c4ncc(-c5ccccc5)cc4C[C@@]4(OCCCc5ccccc5)[C@@H](C2)N(CC2CC2)CC[C@]314`
output: 1.27

Reference source: ChEMBL document CHEMBL4627399
